This collection of values is drawn from the NIST ThermoML archive (doi:10.1016/j.fluid.2018.11.011).

- protocol_summary: activity coefficient (dimensionless); of the first substance listed, at infinite dilution; xn = mol fraction of the nth substance listed
- assay_context: 323 K; 101.33 kPa; Liquid; Chromatography; x1 = 0
// assign yes (1) if activity coefficient falls strictly below 1, else no (0) (ties count as no (0))

C1CCOC1 [tetrahydrofuran] + CCCCCCCCCC[N+](C)(C)CCCCCCCCCC.F[B-](F)(F)F: yes (1)

(Q) activity coefficient under 1? Item: CO [methanol] + CCCCCCCCCC[N+](C)(C)CCCCCCCCCC.[O-][Cl+3]([O-])([O-])[O-]
(A) yes (1)

(Q) activity coefficient under 1? Item: C=CCCC [1-pentene] + CCCCCCCCCC[N+](C)(C)CCCCCCCCCC.F[B-](F)(F)F
(A) no (0)

(Q) activity coefficient under 1? Item: CC(C)O [propan-2-ol] + CCCCCCCCCC[N+](C)(C)CCCCCCCCCC.F[B-](F)(F)F
(A) no (0)

(Q) activity coefficient under 1? Item: ClCCCl [1,2-dichloroethane] + CCCCCCCCCC[N+](C)(C)CCCCCCCCCC.F[B-](F)(F)F
(A) yes (1)

(Q) activity coefficient under 1? Item: C1CCCCC1 [cyclohexane] + CCCCCCCCCC[N+](C)(C)CCCCCCCCCC.F[B-](F)(F)F
(A) no (0)

(Q) activity coefficient under 1? Item: ClC(Cl)Cl [trichloromethane] + CCCCCCCCCC[N+](C)(C)CCCCCCCCCC.F[B-](F)(F)F
(A) yes (1)

(Q) activity coefficient under 1? Item: CCCC [butane] + CCCCCCCCCC[N+](C)(C)CCCCCCCCCC.[O-][Cl+3]([O-])([O-])[O-]
(A) no (0)

(Q) activity coefficient under 1? Item: CCCCCC [hexane] + CCCCCCCCCC[N+](C)(C)CCCCCCCCCC.F[B-](F)(F)F
(A) no (0)

(Q) activity coefficient under 1? Item: C1CCCCC1 [cyclohexane] + CCCCCCCCCC[N+](C)(C)CCCCCCCCCC.[O-][Cl+3]([O-])([O-])[O-]
(A) no (0)

---

Recorded activity coefficient by entry
- protocol_summary: activity coefficient (dimensionless); of the first substance listed, at infinite dilution; xn = mol fraction of the nth substance listed
- assay_context: 308 K; 101.33 kPa; Liquid; Chromatography; x1 = 0
Reply briefly: the number, and no unit.

For orientation, consider the following solved cases.
C1CCCCCC1 [cycloheptane] + CCCCCCCCCC[N+](C)(C)CCCCCCCCCC.[O-][Cl+3]([O-])([O-])[O-]: 2.29
C#CCCCC [1-hexyne] + CCCCCCCCCC[N+](C)(C)CCCCCCCCCC.[O-][Cl+3]([O-])([O-])[O-]: 0.732
CCCC [butane] + CCCCCCCCCC[N+](C)(C)CCCCCCCCCC.[O-][Cl+3]([O-])([O-])[O-]: 1.36
CCCCCCCC [octane] + CCCCCCCCCC[N+](C)(C)CCCCCCCCCC.[O-][Cl+3]([O-])([O-])[O-]: 3.98
CCCCCC [hexane] + CCCCCCCCCC[N+](C)(C)CCCCCCCCCC.F[B-](F)(F)F: 2.73

(Q) Please report activity coefficient for the following compound: CCCCCCC [heptane] + CCCCCCCCCC[N+](C)(C)CCCCCCCCCC.[O-][Cl+3]([O-])([O-])[O-]
(A) 3.11

(Q) Please report activity coefficient for the following compound: C=CCCCC [hex-1-ene] + CCCCCCCCCC[N+](C)(C)CCCCCCCCCC.[O-][Cl+3]([O-])([O-])[O-]
(A) 2.28
